Values from paper PMC12416549

Measured apparent Kd (screen), listed per entry for reference.
measured.target: T1, TNFR1 (Homo sapiens, UniProt P19438)
T1 chain: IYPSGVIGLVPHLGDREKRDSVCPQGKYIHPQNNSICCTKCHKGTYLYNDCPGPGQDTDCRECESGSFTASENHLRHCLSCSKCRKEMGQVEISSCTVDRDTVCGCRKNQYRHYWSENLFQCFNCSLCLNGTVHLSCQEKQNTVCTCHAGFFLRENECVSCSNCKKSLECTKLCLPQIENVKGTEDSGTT
assay.procedure: yeast display SC50
measured.attribute: apparent Kd (screen) (nM)

binder	unit.name	assay.value
R97C (designed binder) MTLQELLREEALRRAEAEAFRYALELLAEKFPEQKEYLLDLAEEIESQIRSLSGVDVEDVRKFLDKEWAWVKELLAEHPAELAEVEAARAARLAELCAEVEAKVAA	nM	1.05
G54R (designed binder) MTLQELLREEALRRAEAEAFRYALELLAEKFPEQKEYLLDLAEEIESQIRSLSRVDVEDVRKFLDKEWAWVKELLAEHPAELAEVEAARAARLAELRAEVEAKVAA	nM	3.3
A87M (designed binder) MTLQELLREEALRRAEAEAFRYALELLAEKFPEQKEYLLDLAEEIESQIRSLSGVDVEDVRKFLDKEWAWVKELLAEHPAELAEVEMARAARLAELRAEVEAKVAA	nM	0.49
Q4F (designed binder) MTLFELLREEALRRAEAEAFRYALELLAEKFPEQKEYLLDLAEEIESQIRSLSGVDVEDVRKFLDKEWAWVKELLAEHPAELAEVEAARAARLAELRAEVEAKVAA	nM	0.49
